- ASSAY_REMARKS: log P by HPLC on reversed-phase column (C18), EEC Directive 79/831 Annex V.A8
- Assay type: physicochemical
- ASSAY_CONDITIONS: 40° C., 0.1% aqueous formic acid and acetonitrile, linear gradient 10% to 90% acetonitrile
MEASUREMENT_KIND: chromatographic logP
Answers are plain numbers.

// "Cc1nn(C)c(F)c1C(=O)N(C[Si](C)(C)c1ccccc1)C1CC1" : chromatographic logP value = 3.19

###

- ASSAY_REMARKS: log P by HPLC on reversed-phase column (C18), EEC Directive 79/831 Annex V.A8
- Assay type: physicochemical
- ASSAY_CONDITIONS: 40° C., 0.1% aqueous formic acid and acetonitrile, linear gradient 10% to 90% acetonitrile
MEASUREMENT_KIND: logP
One number for each entry.

Consider the reported logP for these compounds:
// "Cn1cc(C(=O)NC[Si](C)(C)c2ccc(Cl)cc2Cl)c(C(F)F)c1" : logP value = 4.06

// "CCc1nn(C)c(F)c1C(=O)N(C[Si](C)(C)c1ccccc1Cl)C1CC1" : logP value = 4.03

// "Cc1nc(C(F)F)c(C(=O)N(C[Si](C)(C)c2ccc(Cl)cc2Cl)C2CC2)s1" : logP value = 5.00

// "Cc1cc(C(=O)N(C[Si](C)(C)c2ccccc2Cl)C2CC2)c(C)o1" : logP value = 4.74

// "CCc1nn(C)c(F)c1C(=O)N(C[Si](C)(C)c1cc(Cl)cc(Cl)c1)C1CC1" : logP value = 4.78

// "Cn1cc(C(=O)N(C[Si](C)(C)Cc2ccccc2Cl)C2CC2)c(C(F)F)c1" : logP value = 4.56

// "Cn1nc(C(F)F)c(C(=O)N(C[Si](C)(C)Cc2cccc(Cl)c2)C2CC2)c1F" : logP value = 4.44

// "Cc1nc(C(F)F)c(C(=O)N(C[Si](C)(C)c2cccc(Cl)c2)C2CC2)s1" : logP value = 4.32

// "CCc1nn(C)c(F)c1C(=O)N(C[Si](C)(C)c1cccc(Cl)c1)C1CC1" : logP value = 4.08

// "Cn1nc(C(F)F)c(C(=O)N(C[Si](C)(C)Cc2ccc(Cl)cc2Cl)C2CC2)c1F" : logP value = 5.03

For every listed record, write down its logP.
1. Cn1cc(C(=O)N(C[Si](C)(C)c2cc(Cl)cc(Cl)c2)C2CC2)c(C(F)F)n1
2. Cc1cc(C(=O)N(C[Si](C)(C)Cc2ccc(Cl)cc2Cl)C2CC2)c(C)o1
3. Cn1nc(C(F)F)c(C(=O)NC[Si](C)(C)c2ccccc2)c1F
4. Cn1nc(C(F)F)c(C(=O)N(C[Si](C)(C)c2ccc3ccccc3c2)C2CC2)c1Cl

4.41
5.78
3.13
4.51

###

- Tested on: Pyrenophora teres
- ASSAY_REMARKS: In vivo preventive test on Pyrenophora teres (barley), Example F
- ASSAY_CONDITIONS: 500 ppm of active ingredient, evaluated 7-9 days after inoculation
- Method: Solvent: 49 parts by weight of N,N-dimethylformamide Emulsifier: 1 part by weight of alkylaryl polyglycol ether To produce a suitable preparation of active compound, 1 part by weight of active compound is mixed with the stated amounts of solvent and emulsifier, and the concentrate is diluted with water to the desired concentration. To test for preventive activity, young plants are sprayed with the preparation of active compound at the stated rate of application. […]
MEASUREMENT_KIND: Efficacy

Consider the reported Efficacy for these compounds:
// "Cn1nc(C(F)F)c(C(=O)NC[Si](C)(C)c2cc(Cl)cc(Cl)c2)c1F" : Efficacy value = 95%

// "CCc1nn(C)c(F)c1C(=O)N(C[Si](C)(C)c1ccccc1Cl)C1CC1" : Efficacy value = 100%

Now consider the entry below.
// "Cn1nc(C(F)F)c(C(=S)N(C[Si](C)(C)Cc2ccc(Cl)cc2Cl)C2CC2)c1F" : Efficacy value = 100%
